- System: skin roughness
- measurement notes: Score of skin roughness, visual ranking after two-week coating on cheeks
- Format: in vivo, women
- run parameters: Invention product 4: emulsified cosmetic, compound 1.0 wt. %, polyoxyethylene (20) sorbitan stearate 1.0 and sorbitan monostearate 1.0 wt. %; average; 0 = none, 4 = severe
property name: Score of skin roughness
Would you mind answering with just the numeric figure?

Solved cases below.
compound	Score of skin roughness
CCCCCCCCCCCCCCCCOCC(O)CN(CCO[C@@H]1O[C@H](CO)[C@@H](O[C@@H]2O[C@H](CO)[C@H](O)[C@H](O)[C@H]2O)[C@H](O)[C@H]1O)C(=O)CCCCCCCCCCCCCCC (stereo partly drawn)	0.8
CCCCCCCCCCCCCCCCCCOCC(O)CN(CC(O)COCCCCCCCCCC)C(C)=O (stereo not drawn)	1.2

From here, focus on the item given below.
Problem: Item CCCCCCCCCCCCCCCCCC(=O)N(CC(=O)O)CC(O)COCCCCCCCCCCCCCC (stereo not drawn) [Compound Ic1] has what recorded Score of skin roughness?
Result: 1.2

---

- Tested on: horny layer
- measurement notes: Skin conductance (water content of horny layer) after two-week coating on cheeks
- Assay type: in vivo, women
- Design: key: conductance meter reading; ≤5 = severe roughness, ≥20 = no roughness
- run parameters: Invention Product 1: vaseline and compound 3:1 by weight; two weeks; 20° C., 40% humidity; 5 and smaller = severe roughness, 20 or greater = no substantial roughness
property name: Skin conductance
Would you mind answering with just the numeric figure?

Solved cases below.
compound	Skin conductance
CCCCCCCCCCCCCCCCCC(=O)N(CC(=O)O)CC(O)COCCCCCCCCCCCCCC (stereo not shown) [Compound Ic2]	15
CCCCCCCCCCCCCCCCCC(=O)N(CC(=O)O)CC(O)CCCCCCCCCCCCCCCC (stereo not shown) [Compound Ic4]	13
CCCCCCCCCCCCCCCCCC(=O)N(CC(=O)O)CC(O)CCCCCCCCCCCCCCCC (stereo not shown) [Compound Ic3]	11
CCCCCCCCCCCCCCCCCCOCC(O)CN(CC(=O)O)CC(O)COCCCCCCCCCCCCCCCCCC (stereo not shown) [Compound II8]	20
CCCCCCCCCCCCCCCCCCOCC(O)CN(C(=O)CCCCCCCCCCCCCCCCC)C(C)(CO)CO (stereo not shown) [Compound Ia14]	23
CCCCCCCCCCOCC(O)CN(CC(O)COCCCCCCCCCC)C(C)=O (stereo not shown) [Compound II10]	9

Problem: Item CCCCCCCCCCCCCCCCOCC(O)CN(CCO[C@]1(C(=O)O)C[C@H](O)[C@@H](NC(C)=O)[C@H]([C@H](O)[C@H](O)CO)O1)C(=O)CCCCCCCCCCCCCCC (stereo partly shown) [Compound Ie4] has what recorded Skin conductance?
Result: 33

---

- System: horny layer
- measurement notes: Skin conductance (water content of horny layer) after two-week coating on cheeks
- Type: in vivo, women
- Set-up: key: conductance meter reading; ≤5 = severe roughness, ≥20 = no roughness
- run parameters: Invention Product 1: vaseline and compound 3:1 by weight; two weeks; 20° C., 40% humidity; 5 and smaller = severe roughness, 20 or greater = no substantial roughness
property name: Skin conductance
Would you mind answering with just the numeric figure?

Problem: Item CCCCCCCC/C=C\CCCCCCCCOCC(O)CN(CCOP(=O)([O-])OCC[N+](C)(C)C)C(=O)CCCCCCCCCCCCCCCCC (stereo not shown) has what recorded Skin conductance?
Result: 13

Problem: Quick one: CCCCCCCCCCCCCCCCCCOCC(O)CN(C(=O)CCCCCCCCCCCCCCCCC)C(C)(C)CO (stereo not shown)
Result: 13

---

- System: skin roughness
- measurement notes: Score of skin roughness, visual ranking after two-week coating on cheeks
- Assay type: in vivo, women
- run parameters: Invention product 4: emulsified cosmetic, compound 1.0 wt. %, polyoxyethylene (20) sorbitan stearate 1.0 and sorbitan monostearate 1.0 wt. %; average; 0 = none, 4 = severe
Readings of Score of skin roughness for the listed compounds
Would you mind answering with just the numeric figure?

Solved cases below.
compound	Score of skin roughness
CCCCCCCCCCCCCCCCCCOCC(O)CN(CCCCCCO)C(=O)CCCCCCCCCCCCCCCCC (centres unmarked) [Compound Ia9]	0.9
CCCCCCCCCCCCCCCCOCC(O)CN(CCOP(=O)(O)OCCNC)C(=O)CCCCCCCCCCCCCCC (centres unmarked) [Compound Ie6]	1.4

Problem: Item CCCCCCCCCCCCCCCCOCC(O)CN(C(=O)CCCCCCCCCCCCCCC)C(CO)C(=O)O (centres unmarked) [Compound Ic8] has what recorded Score of skin roughness?
Result: 0.9

Problem: Quick one: CCCCCCCCCCCCCCCCCCOCC(O)CN(CCCO)C(=O)CCCCCCCCC (centres unmarked) [Compound Ia5]
Result: 1.0

Problem: Quick one: CCCCCCCCCCCCCCCCOCC(O)CN(CCO[C@]1(C(=O)O)C[C@H](O)[C@@H](NC(C)=O)[C@H]([C@H](O)[C@H](O)CO)O1)C(=O)CCCCCCCCCCCCCCC (some centres unmarked) [Compound Ie4]
Result: 0.4

Problem: Quick one: CCCCCCCCCCCCCCCCCC(=O)N(CC(=O)O)CC(O)CCCCCCCCCCCCCCCC (centres unmarked) [Compound Ic4]
Result: 1.3

Problem: Quick one: CCCCCCCCCCC(O)CN(CCO)C(=O)CCCCCCCCC (centres unmarked) [Compound Id3]
Result: 1.1

Problem: Quick one: CCCCCCCCCCCCCCCCCC(=O)N(CC(O)CO)CC(O)COCCCCCCCCCC (centres unmarked) [Compound Ia11]
Result: 0.8

Problem: Quick one: CCCCCCCCCCCCCCCCOCC(O)CN(CCOC1O[C@H](CO)[C@@H](O)[C@H](O)[C@H]1O)C(=O)CCCCCCCCCCCCCCC (some centres unmarked) [Compound Ie1]
Result: 0.9

Problem: Quick one: CCCCCCCCCCCCCCCCOCC(O)CN(C(=O)CCCCCCCCCCCCCCC)C(C(=O)O)C(C)C (centres unmarked) [Compound Ic7]
Result: 1.1

Problem: Quick one: CCCCCCCCCCCCCCCCOCC(O)CN(CC(=O)O)CC(O)COCCCCCCCCCCCCCCCC (centres unmarked) [Compound II9]
Result: 0.9

Problem: Quick one: CCCCCCCCCCCCCCCCOCC(O)CN(C(=O)CCCCCCCCCCCCCCC)C(Cc1c[nH]cn1)C(=O)O (centres unmarked) [Compound Ic12]
Result: 1.6

Problem: Quick one: CCCCCCCCCCCCCCCCOCC(O)CN(CCO)CC(O)COCCCCCCCCCCCCCCCC (centres unmarked) [Compound II1]
Result: 0.8

Problem: Quick one: CCCCCCCCCCCCCCCCCCOCC(O)CN(C(=O)CCCCCCCCCCCCCCCCC)C(C)CO (centres unmarked) [Compound Ia16]
Result: 0.9

Problem: Quick one: CCCCCCCCCCCCCCCCCC(=O)N(CCCO)CC(O)COCCCCCCCCCC (centres unmarked) [Compound Ia4]
Result: 1.1

Problem: Quick one: CCCCCCCCCCOCC(O)CN(CC(=O)O)CC(O)COCCCCCCCCCC (centres unmarked) [Compound II6]
Result: 1.2

Problem: Quick one: CCCCCCCCCCCCCCCCOCC(O)CN(CC(O)CO)C(=O)CCCCCCCCCCCCCCC (centres unmarked) [Compound Ia10]
Result: 0.6

Problem: Quick one: CCCCCCCCCCCCCCCCCC(=O)N(CCOCCO)CC(O)COCCCCCCCCCC (centres unmarked) [Compound Ib4]
Result: 0.9

Problem: Quick one: CCCCCCCCCCCCCCCCOCC(O)CN(C(=O)CCCCCCCCCCCCCCC)C(Cc1c[nH]c2ccccc12)C(=O)O (centres unmarked) [Compound Ic13]
Result: 1.7

Problem: Quick one: CCCCCCCC/C=C\CCCCCCCC(=O)N(CCO)CC(O)CCCCCCCCCCCCCCCC (centres unmarked) [Compound Id5]
Result: 0.6

---

- Test system: horny layer
- measurement notes: Skin conductance (water content of horny layer) after two-week coating on cheeks
- Format: in vivo, women
- Parameters: key: conductance meter reading; ≤5 = severe roughness, ≥20 = no roughness
- run parameters: Invention Product 1: vaseline and compound 3:1 by weight; two weeks; 20° C., 40% humidity; 5 and smaller = severe roughness, 20 or greater = no substantial roughness
property name: Skin conductance
Would you mind answering with just the numeric figure?

Solved cases below.
compound	result number
CCCCCCCCCCCCCCCCOCC(CN(CCOP(=O)([O-])OCC[N+](C)(C)C)C(=O)CCCCCCCCCCCCCCC)OP(=O)([O-])OCC[N+](C)(C)C (centres unmarked) [Compound Ie14]	10
CCCCCCCCCCCCCCCCCC(=O)N(CC(=O)O)CC(O)COCCCCCCCCCCCCCC (centres unmarked) [Compound Ic1]	14
CCCCCCCCCCCCCCCCCCOCC(O)CN(CCCO)C(=O)CCCCCCCCC (centres unmarked) [Compound Ia5]	17
CCCCCCCCCCCCCCCCCC(=O)N(CCO)CC(O)CCCCCCCCCC (centres unmarked) [Compound Id4]	17

From here, focus on the item given below.
Problem: Give recorded Skin conductance with horny layer for the following compound: CCCCCCCCCCCCCCCCCC(=O)N(CCO)CC(O)CCCCCCCCCCCCCC (centres unmarked) [Compound Id1]
Result: 21
